- Test system: Triticum aestivum (TRZAS)
- PROCEDURE DETAILS: Post-emergence crop plant compatibility, greenhouse pot test
- Assay type: in vivo
- EXPERIMENTAL CONTEXT: 5 g/ha, vs untreated controls
QUANTITY: Post-emergence action against TRZAS (crop plant compatibility) (%)

{"columns": ["COMPOUND", "REPORTED MEASUREMENT"],
 "data": [
  ["COCCOC(=O)COc1ccccc1Oc1cc(-n2c(=O)cc(C(F)(F)F)n(C)c2=O)c(F)cc1C#N [I.9-1]", 10],
  ["Cn1c(C(F)(F)F)cc(=O)n(-c2cc(Oc3ccccc3OCC(=O)OCCC[N+](=O)[O-])c(Cl)cc2F)c1=O [I.7-339]", 20],
  ["COCCOCCOC(=O)COc1ccccc1Oc1cc(-n2c(=O)cc(C(F)(F)F)n(C)c2=O)c(F)cc1C#N [I.9-23]", 20]
]}

---

- Test system: Abutilon theophrasti (ABUTH)
- PROCEDURE DETAILS: Post-emergence herbicidal action, greenhouse pot test
- Format: in vivo
- EXPERIMENTAL CONTEXT: 1.25 g/ha, rated visually after about 3 weeks vs untreated controls, 100% = plants have died
QUANTITY: Post-emergence action at 1.25 g/ha against ABUTH in % (%)

{"columns": ["STRUCTURE SMILES STRING", "TARGET OF ASSAY", "REPORTED MEASUREMENT"],
 "data": [
  ["Cn1c(C(F)(F)F)cc(=O)n(-c2cc(Oc3cc(F)ccc3OCC(=O)OCc3ccccn3)c(Cl)cc2F)c1=O", "Abutilon theophrasti (ABUTH)", 90],
  ["CCOCCOC(=O)COc1ccccc1Oc1cc(-n2c(=O)cc(C(F)(F)F)n(C)c2=O)c(F)cc1Br", "Abutilon theophrasti (ABUTH)", 100],
  ["Cn1c(C(F)(F)F)cc(=O)n(-c2cc(Oc3ccccc3OCC(=O)OCc3cccnn3)c(C#N)cc2F)c1=O", "Abutilon theophrasti (ABUTH)", 100]
]}

---

- System: Viola tricolor (VIOTR)
- PROCEDURE DETAILS: Post-emergence herbicidal action, greenhouse pot test
- Format: in vivo
- EXPERIMENTAL CONTEXT: 1.25 g/ha
# key: entry, value: Post-emergence action against VIOTR

{"columns": ["COMPOUND", "TARGET OF ASSAY", "Post-emergence action against VIOTR, %"],
 "data": [
  ["Cn1c(C(F)(F)F)cc(=O)n(-c2cc(Oc3ccccc3OCC(=O)OCC[N+](=O)[O-])c([N+](=O)[O-])cc2F)c1=O", "Viola tricolor (VIOTR)", 90],
  ["CC(Oc1ccccc1Sc1cc(-n2c(=O)cc(C(F)(F)F)n(C)c2=O)c(F)cc1Cl)C(=O)OCC1CCOC1 (mixture of isomers)", "Viola tricolor (VIOTR)", 100],
  ["Cn1c(C(F)(F)F)cc(=O)n(-c2cc(Oc3c(F)cccc3OCC(=O)OCC#N)c(Cl)cc2F)c1=O", "Viola tricolor (VIOTR)", 80]
]}

---

- System: Triticum aestivum (TRZAS)
- PROCEDURE DETAILS: Post-emergence crop plant compatibility, greenhouse pot test
- Assay type: in vivo
- EXPERIMENTAL CONTEXT: 1.25 g/ha, vs untreated controls
QUANTITY: Post-emergence action against TRZAS (crop plant compatibility) (%)

{"columns": ["COMPOUND", "TARGET OF ASSAY", "UOM", "REPORTED MEASUREMENT"],
 "data": [
  ["Cn1c(C(F)(F)F)cc(=O)n(-c2cc(Oc3ccccc3OCC(=O)OCc3ccccn3)c([N+](=O)[O-])cc2F)c1=O", "Triticum aestivum (TRZAS)", "%", 10],
  ["COCCOC(=O)C(C)Oc1ccccc1Sc1cc(-n2c(=O)cc(C(F)(F)F)n(C)c2=O)c(F)cc1Cl (racemic)", "Triticum aestivum (TRZAS)", "%", 20],
  ["Cn1c(C(F)(F)F)cc(=O)n(-c2cc(Oc3ccccc3OCC(=O)OCCC[N+](=O)[O-])c(Cl)cc2F)c1=O", "Triticum aestivum (TRZAS)", "%", 0]
]}
